target: T1, human TfR extracellular domain with N-terminal His tag (human, UniProt P02786 89-760); assay: SPR, IgG;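 also: His-tagged TfR captured via immobilized anti-His antibody on a CM5 chip, antibody injected in 3-fold dilution series by single cycle kinetics, 1:1 Langmuir or steady-state fit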
T1 construct: Biotinylated in some assays; also called huTfR; HuTfR
T1 sequence (P02786 89-760 G142S): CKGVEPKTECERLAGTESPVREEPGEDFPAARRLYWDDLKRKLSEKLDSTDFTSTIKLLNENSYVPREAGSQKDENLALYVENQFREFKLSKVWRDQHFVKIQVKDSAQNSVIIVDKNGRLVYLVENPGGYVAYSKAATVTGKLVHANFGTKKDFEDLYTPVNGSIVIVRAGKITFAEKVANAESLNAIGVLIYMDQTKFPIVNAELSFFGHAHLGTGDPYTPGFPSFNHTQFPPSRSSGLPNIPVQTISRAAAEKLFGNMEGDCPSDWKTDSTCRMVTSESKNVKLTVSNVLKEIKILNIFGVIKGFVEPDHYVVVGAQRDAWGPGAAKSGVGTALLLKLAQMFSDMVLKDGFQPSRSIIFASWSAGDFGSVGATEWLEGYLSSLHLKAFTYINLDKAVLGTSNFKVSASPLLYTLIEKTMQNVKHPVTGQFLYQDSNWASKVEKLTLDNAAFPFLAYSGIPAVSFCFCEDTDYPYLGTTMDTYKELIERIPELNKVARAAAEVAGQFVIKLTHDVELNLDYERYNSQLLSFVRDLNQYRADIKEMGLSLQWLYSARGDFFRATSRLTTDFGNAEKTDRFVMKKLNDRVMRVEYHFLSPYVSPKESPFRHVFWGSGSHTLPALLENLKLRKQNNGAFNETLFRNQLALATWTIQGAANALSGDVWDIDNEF
Metric name: Kd (nM)
# number only, unit nM dropped from output

hu7A4.v1 (antibody, V domains shown, IgG) VH: EVQLVQSGAEVKKPGASVKVSCKASGYTFTDYAMHWVRQAPGQGLEWMGGISTYFGRTNYNQKFKGRVTMTRDTSISTAYMELSRLRSDDTAVYYCARGLSGNYVMDYWGQGTTVTVSS VL: DIVMTQSPDSLAVSLGERATINCRASESVDSYGNSFMHWYQQKPGQPPKLLIYRASNLESGVPDRFSGSGSGTDFTLTISSLQAEDVAVYYCQQSNEGPPTFGQGTKLEIK : 0.279

Switching to the query record.
Query block: Report Kd for hu15G11.v2 (antibody, V domains shown, IgG; HC 48 M, 67 V, 69 I, 71 V, 73 T) VH: EVQLVQSGAEVKKPGASVKVSCKASGYTFTSYWMHWVRQAPGQRLEWMGEINPTNGRTNYIEKFKSRVTITVDTSASTAYMELSSLRSEDTAVYYCARGTRAYHYWGQGTMVTVSS VL: DIQMTQSPSSLSASVGDRVTITCRASDNLYSNLAWYQQKPGKAPKLLLYDATNLADGVPSRFSGSGSGTDYTLTISSLQPEDFATYYCQHFWGTPLTFGQGTKVEIK please.
Result block: 9.35
